Provide the recorded melting point for the entries that follow.

Solved cases below.
O=c1[nH]c(-c2ccccc2)cn1CCO
203 to 205 °C
CCOC(=O)c1cc(CC)sc1Nc1ccccc1N
50 to 52 °C
O=C(Oc1cc2ccccc2cc1OC(=O)c1cc(O)c(O)c(O)c1)c1cc(O)c(O)c(O)c1
182 to 183 °C
O=C1c2ccccc2C(=O)N1C(CCCBr)c1ccccc1 (stereo not given)
88 to 91 °C

# batch: return melting point for each of the 6 compounds below
1. COC(=O)C(C)(Cc1ccc(Cl)nc1)C(=O)OC
2. CN(C)C1CCC(Nc2nc3cc(Cl)c(Cl)cc3nc2-c2cccnc2)CC1 (stereo not given)
3. O=C(OCc1ccccc1)N1C(=O)[C@H](O)[C@@H]1c1ccccc1
4. COc1ccc(C(=O)Nc2cccc(-c3cccc4c3/C(=C/c3ccc[nH]3)C(=O)N4)c2)cc1
5. Cc1cc(C#Cc2cn(-c3ncccn3)c(C)n2)ccn1
6. O=C(O)CCCCCOc1nc(-c2ccccc2)cc(-c2ccccc2)n1

["80 to 81 °C", "158 to 161 °C", "105 to 106 °C", "209 to 211 °C", "164 to 165 °C", "127 to 129 °C"]

---

Provide the recorded melting point for the entries that follow.

Solved cases below.
CC(C)[C@H]1COC(=O)N1C(=O)[C@@H](CC(=O)N(C)Cc1ccccc1)Cc1ccccc1
60 to 62 °C
OCc1cc(Cc2ccccc2)cs1
33 to 34 °C
CCOC(=O)NN=Cc1c[nH]c(C)n1
210 to 212 °C

# batch: return melting point for each of the 3 molecules below
1. CC1(C)CCC(C)(C)c2cc(NC(=O)c3ccc(C=CC(=O)O)cc3)ccc21
2. Cc1cc(-c2c(-c3ccc(S(N)(=O)=O)cc3)cnn(-c3ccc(F)cc3)c2=O)ccc1F
3. CCNS(=O)(=O)/C=C/c1ccc2[nH]cc(C3CCN(Cc4ccccc4)CC3)c2c1

226 to 227 °C
202 to 204 °C
178 to 180 °C

---

Residues, ends and D or L forms follow the SMILES beside them. *: point of attachment. Tos = Cc1ccc(S(=O)(=O)*)cc1
measure name: melting point

CC(C)c1nc(-c2ccccc2)c(C(C)C)c(-c2ccc(F)cc2)c1CO
244 to 246 °C
CC(=O)OC1CSC(Oc2cccc(C)n2)C(OC(C)=O)C1OC(C)=O (stereo not given)
106 °C
Clc1ccc(OCCN2CCN3CC=C(c4ccncc4)N=C32)cc1
211 to 213 °C
COC(=O)c1n[nH]c2nc(N3CCN(C)CC3)ccc12
230 to 231 °C

# batch: return melting point for each of the 6 molecules below
1. CC(Oc1ncc(F)c(N)n1)c1ccc(F)cc1 (stereo not given)
2. CCCCCCCCCCCCCCOc1cccc(CC(=O)Nc2ccccc2CO)c1
3. O=c1cc(N2CCCC(CO)C2)oc2c1ccc1ccccc12 (stereo not given)
4. CC(=O)Nc1ccc(C(=O)C=CN(C)C)cc1
5. CCC(C)CNC(=O)c1cc(NC)cc(C(=O)NCC(C)CC)c1 (stereo not given)
6. Cc1ccc(S(=O)(=O)N2CCC[C@H]2C(=O)N[C@@H](CCC(N)=O)C(=O)O)cc1 (Tos-Pro-Gln-OH)

1: 96 to 98 °C; 2: 100 to 103 °C; 3: 209 to 210 °C; 4: 185 to 186 °C; 5: 160 to 161 °C; 6: 45 to 55 °C
